Hi there, I'd appreciate the recorded growth for every entry that follows.
Tested on: DU-145 prostate
Experiment: NCI-60 one-dose screen, 48 h (100 = growth as untreated, 0 = no growth, -100 = all killed)
Conditions: 10 µM
This is part of a sample that, as a whole, favours compounds with a hit. Of some 83,000 tested, about 20% had one in any assay.
Answers are plain numbers, in %.

// solved cases for growth follow
O=C1Nc2cc(Cl)ccc2/C1=C/c1cccc(OCc2ccccc2)c1: 3.5
Cc1ccc([N+](=O)[O-])c(C(=O)Nc2ccc(-c3ccc4c(c3)NC(=O)/C4=C\c3ccc[nH]3)cc2)c1: 10.5
Brc1ccc(/C=C/c2n(Cc3ccc4ccccc4c3)c3ccccc3[n+]2Cc2ccc3ccccc3c2)cc1: 3.53
O=C(c1ccc([N+](=O)[O-])c([N+](=O)[O-])c1O)n1[nH]c(=O)c2ccccc2c1=O: 25.4
C[C@H]1[C@H](C)CC[C@]2(COC(=O)CCC(=O)NCC#CCN3CCNCC3)CC[C@]3(C)C(=CC[C@@H]4[C@@]5(C)CCCNC(C)(C)[C@@H]5CC[C@]43C)[C@H]12: 74.4
CC(=O)Nc1ccc(-c2cn(-c3cccc(C(=O)Nc4ccc(F)c(C(F)(F)F)c4)c3)nn2)cn1: 42.5
C/C(=N\N=C\c1ccc(N(C)C)cc1)c1ccc2c(c1)Nc1ccccc1S2: 62
Cc1ccc(F)cc1N/C=c1\s/c(=C(\C#N)C(=O)Nc2ccccc2)n(-c2ccccc2)c1=O: 54.5

Provide the reported growth of each entry below, same order.
1. O=C(Nc1ccc(F)c(Cl)c1)c1cc(-c2ccc(F)cc2F)ccc1O
2. N#Cc1c(-c2ccc(F)cc2)nc(SCc2ccc([N+](=O)[O-])cc2)nc1N1CCOCC1
3. COc1cc(/C=C/C(=O)c2ccc(S(=O)(=O)NCCNc3nc(Nc4ccc(F)cc4)nc(N(C)C)n3)cc2)cc(OC)c1OC
4. Cc1ccc(C(=O)CSc2nnc(-c3c[nH]c4ccccc34)n2-c2ccccc2)cc1
5. OCc1[nH]nc2cc(Nc3ncc4ccc(Br)c(OC5CCC(O)CC5)c4n3)ccc12 (centres undefined)
6. O=c1cc(-c2ccccc2)oc2cc(OCCCCNCc3ccccc3)cc(O)c12

1: 13.3; 2: 73.3; 3: 5.6; 4: 78.9; 5: 11.6; 6: 27.6

---

So I've got a bunch of compounds here, and I need their growth values.
System: NCI-H322M lung
Assay: NCI-60 one-dose screen, 48 h (100 = growth as untreated, 0 = no growth, -100 = all killed)
Conditions: 10 µM
Compounds without any hit were thinned out: in the full panel of roughly 83,000, 20% have a hit. The source made the active and inactive calls. The calls were made as follows: active = growth percent below 10; inactive = the rest.

Below, each entry is followed by its recorded growth result.
Cc1ccc(S(=O)(=O)c2nc(-c3ccccc3)oc2S(=O)(=O)CC(=O)N2CCCC2)cc1: 73.6% (inactive)
CCCn1c(O)c(N=Nc2nc(-c3cc4ccccc4oc3=O)cs2)c2cc(Br)ccc21: 102% (inactive)
CCOC(=O)c1sc(N/N=C(\C)c2ccc3c(c2)Nc2ccccc2S3)nc1C: 45.2% (inactive)
COC[C@@H](CC(C)C)N=C1N/C(=C\c2ccc3ncsc3c2)C(=O)N1C: 9.12% (active)
Cc1ccc(-c2nc(Nc3ccccc3C(=O)O)c3ccccc3n2)cc1: 33.8% (inactive)
O=C(N=Nc1c(O)[nH]c2ccc(Br)cc12)c1ccc2nc(-c3ccccc3)[nH]c2c1: -62.9% (active)

Required: growth, one value per compound below.
1. O=C1NC(=NC23CC4CC(CC(C4)C2)C3)N/C1=C\c1ccc2ncccc2n1
2. Cc1ccc(NC(=O)c2ccc(-n3c(=O)[nH]c4ccccc4c3=O)cc2)cc1
3. Cc1nc(Nc2nc(C)c3ccc(OCCN4CCOCC4)cc3n2)[nH]c(=O)c1C
4. Nc1cc(-c2cccc(C(=O)NCc3ccc4c(c3)OCO4)c2)ccn1
5. O=C(Nc1cc(Cl)cc(Cl)c1)Nc1cc(Cl)cc(Cl)c1
6. Cc1ccc2nc(COc3ccc(C(=O)NNC(=S)NCCc4ccccc4)cc3)[nH]c2c1
7. CCOP(=O)(OCC)O[C@H]1CC[C@]2(C)[C@H]3CC[C@@H]4[C@@H]([C@](C)(O)CCC=C(C)C)CC[C@@]4(C)[C@]3(C)CC[C@H]2C1(C)C

1. -10.2% (active)
2. 99.9% (inactive)
3. -10.8% (active)
4. 111% (inactive)
5. -5.15% (active)
6. 51.7% (inactive)
7. 74.1% (inactive)

For the 4 compounds below, give their growth values.
1. COc1ccccc1[C@H]1C(C(=O)c2ccc(Cl)cc2)C2(N[C@@H]1c1ccccc1)C(=O)Nc1ccccc12 (stereo partly drawn)
2. C=C1CCC2C3(C)COC(c4ccccc4F)OC3CCC2(C)C1C/C=C1/C(=O)OCC1O (stereo not drawn)
3. O=C1Nc2cc(Cl)ccc2/C1=C/c1cccc(OCc2ccccc2)c1
4. COC1=C[C@]23CCC(=O)N2CCc2cc4c(cc2[C@@H]3[C@@H]1OC(=O)CCCC(C)C)OCO4

10.3% (inactive)
14.5% (inactive)
29.5% (inactive)
108% (inactive)

Respectfully, I request growth for each entry included below.
1. CC(=O)Nc1ccc(-c2cn(-c3cccc(C(=O)Nc4cc(CN5CCOCC5)cc(C(F)(F)F)c4)c3)nn2)cn1
2. CC(=O)Nc1ccc(-c2cn(-c3cccc(C(=O)Nc4cc(C(F)(F)F)cc(C(F)(F)F)c4)c3)nn2)cn1
3. C=C[C@H]1[C@H](O[C@@H]2OC(CO)[C@@H](O)[C@H](O)C2OC(=O)c2c(O)cc(O)cc2-c2cccc(O)c2)OC=C2C(=O)OCC[C@H]21 (stereo partly drawn)
4. Cc1cccc(-c2nc(Nc3ccccc3C(=O)O)c3ccccc3n2)c1
5. COc1ccc(-c2nc(S(=O)(=O)c3ccccc3)c(S(C)(=O)=O)o2)cc1
6. COc1ccc2[nH]c(O)c(N=NC(=O)c3cc(-c4ccc(C)cc4)nc4ccccc34)c2c1
7. CN(CCF)c1ccc(/C=C/C(=O)c2ccc(N)cc2O)cc1

["-94.3% (active)", "-15.6% (active)", "93.8% (inactive)", "48.7% (inactive)", "101% (inactive)", "102% (inactive)", "78.8% (inactive)"]
